Numbers sourced from the supplement of paper PMC10567573.

B1: ZNF511 (parent)
chain: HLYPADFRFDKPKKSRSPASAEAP

variants of: B1; test: protein stability index of a GFP-peptide fusion (GPS, HEK-293T) (PSI 1-6); higher = more stable; details: c terminus: a fixed tail appended;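 further: lentivirally expressed fusions sorted by FACS into six bins by GFP to DsRed ratio, PSI derived from sequencing read proportions per bin multiplied by bin number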
Entry flag: class 1 if protein stability index reaches 3; class 0 if it does not.

Please review the entries below; each comes with its answer.
1. HLYPADFRFDKPKYSRSPASAEAP [K14Y] : class 0
2. HLYPADFRFTKPKKSRSPASAEAP [D10T] : class 0
3. HLYPADFRFQKPKKSRSPASAEAP [D10Q] : class 0
4. HFYPADFRFDKPKKSRSPASAEAP [L2F] : class 1
5. HLYPADWRFDKPKKSRSPASAEAP [F7W] : class 0
6. HLYPADFRFKKPKKSRSPASAEAP [D10K] : class 0

Exam item: decide whether the reported protein stability index for HLYPADFRFDKPKKSRSPASAMAP [E22M] is at least 3.
class 0

Entry HLYPADFRFDKPKKSRSPASAERP [A23R] : is its protein stability index no less than 3?
class 0

Is the recorded value of protein stability index equal to or greater than 3 for this variant? HLYPADFRFDKPFKSRSPASAEAP [K13F]
class 0

Form field: protein stability index at least 3? Entry: HLYPADFRFDKRKKSRSPASAEAP [P12R]
class 0

Is the recorded value of protein stability index equal to or greater than 3 for this variant? HLYPADFRFDKPKKSHSPASAEAP [R16H]
class 1
